Experiment Notes: chemical genetic growth profiling, strain panel (AID 1159580);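 also: tested at 20 µM; growth read once vehicle control cultures reached saturation at 30 °C; 1 = growth at the plate median or of vehicle wells; lower values mean less growth of the strain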
Run Conditions: S. cerevisiae deletion strains, growth OD, locus YGL248W, strain PDE1, active compounds read low
About 2,000 (36%) of roughly 5,500 compounds were called active. Inconclusive results (about 18%) are left out. Some of the results follow.
The compounds listed here are annotated with their normalized growth.
Please reply with the value in numeric form only.

{"columns": ["Compound", "Experimental Result"],
 "data": [
  ["COC(=O)C[C@H]1C(C)(C)[C@H](O)[C@@H]2CC3=C4CC(O)O[C@@H](c5ccoc5)[C@]4(C)CCC3[C@@]1(C)C2=O (stereo partly specified)", 0.991]
]}

Reported normalized growth, compound C[N+]1(C)CCCC(OC(=O)C(O)(c2ccccc2)c2ccccc2)C1 (stereo unspecified) : ____
1

Reported normalized growth, compound `O=C(/C=C/c1ccccc1)c1c(O)cc(O)cc1O` : ____
1.01

Reported normalized growth, compound COc1ccccc1OCC(O)COC(N)=O (stereo unspecified) : ____
0.999

Reported normalized growth, compound `O[C@H]1[C@H](O)[C@@H](O)C2OC[C@H]1O2` : ____
0.975

Reported normalized growth, compound `Cc1cc(O)c2c(c1)C(=O)c1cccc(O)c1C2=O` : ____
0.981
